Known pKd of a selection of sequences
target: HLA-B*58:01; assay: IEDB peptide-MHC binding, purified MHC/direct/fluorescence; filed as Kd, often an IC50 or EC50 that approximates it; bounds were set here for any values at or beyond the usual limits of such assays; conditions: source organism: Mycobacterium tuberculosis
Note on units: pKd is unitless, being -log10 of a concentration expressed in mol/L.

[[record]]
monomer_sequence = "MTMITPPTF"
reported_metric = "pKd"
observed = 7.29


Now turn to the next sequence.
Consider the sequence `VSTAIAALF` and give its measured pKd.
7.55

* * *

molecular target: HLA-B*40:02; assay: IEDB peptide-MHC binding, purified MHC/competitive/radioactivity; filed as Kd, often an IC50 or EC50 that approximates it; bounds were set here for any values at or beyond the usual limits of such assays; details: source organism: Lassa virus Josiah
pKd: −log10 of the molar value.
REPORTED METRIC: pKd

Quick check: pKd of `SEGKDTPGGY` ?
≤ 4.15
